Counter-ions that a name gives are not always drawn.
test.readout: melting point

INSERT INTO results (compound, test_readout, result) VALUES
  ('c1ccc2c(c1)CC(CN1CCC(c3c[nH]c4cc5c(cc34)OCO5)CC1)C2 [Compound 21e]', 'melting point', '187 to 188 °C'),
  ('CC(=O)Nc1ccc2c(c1)C(CCN1CC=C(c3c[nH]c4cc(Cl)ccc34)CC1)CC2 (stereo not shown) (as salt: oxalate) [Compound 18c]', 'melting point', '153 to 155 °C'),
  ('c1ccc2c(c1)CC(CCN1CCC(n3ccc4ccccc43)CC1)C2 [Compound 29b]', 'melting point', '80 to 81 °C'),
  ('CC(C)Oc1cccc2c1CC(CN1CCC(c3c[nH]c4ccc(F)cc34)CC1)C2 (stereo not shown) (as salt: oxalate)', 'melting point', '181 to 189 °C'),
  ('Clc1ccc2c(C3=CCN(CCCCC4Cc5ccccc5C4)CC3)c[nH]c2c1 [Compound 11i]', 'melting point', '211 to 214 °C'),
  ('C1=C(n2ccc3ccccc32)CCN(CCC2Cc3ccccc3C2)C1 (as salt: oxalate) [Compound 28b]', 'melting point', '176 to 178 °C'),
  ('Clc1ccc2c(C3=CCN(CC4Cc5ccccc5C4)CC3)c[nH]c2c1Cl [Compound 11d]', 'melting point', '151 to 152 °C'),
  ('c1ccc2c(c1)CC(CN1CCC(c3c[nH]c4ccccc34)CC1)C2 [Compound 21b]', 'melting point', '146 to 147 °C'),
  ('Fc1ccc2[nH]cc(C3=CCN(CCCCC4CCc5ccccc54)CC3)c2c1 (stereo not shown)', 'melting point', '172 to 176 °C'),
  ('Clc1ccc2c(C3CCN(CCCCC4CCc5ccccc54)CC3)c[nH]c2c1 (stereo not shown) (as salt: oxalate)', 'melting point', '206 to 208 °C'),
  ('CC(=O)Nc1ccc2c(c1)CC(CN1CC=C(c3c[nH]c4cc(Cl)ccc34)CC1)C2 (stereo not shown) (as salt: oxalate)', 'melting point', '201 to 203 °C'),
  ('c1ccc2c(c1)CC(CCN1CCN(c3ccc4[nH]ccc4c3)CC1)C2 (as salt: hydrochloride) [Compound 25b]', 'melting point', '251 to 253 °C'),
  ('Clc1ccc2c(C3CCN(CCCC4Cc5ccccc5C4)CC3)c[nH]c2c1 [Compound 21g]', 'melting point', '134 to 135 °C'),
  ('C1=C(c2c[nH]c3cc4c(cc23)OCO4)CCN(CC2Cc3ccccc3C2)C1 [Compound 11e]', 'melting point', '192 to 193 °C'),
  ('CC(C)Oc1cccc2c1CC(CN1CCC(c3c[nH]c4cc(Cl)ccc34)CC1)C2 (stereo not shown) (as salt: oxalate)', 'melting point', '119 to 126 °C'),
  ('CC(=O)N1CC(CCN2CC=C(c3c[nH]c4cc(Cl)ccc34)CC2)c2ccccc21 (single isomer, unassigned; (-)) [Compound 34b]', 'melting point', '168 to 169 °C');
